Measurement type: melting point

1) Fc1ccc2[nH]cc(CCN3CCN(c4cccc5c4OCC5)CC3)c2c1.O=C(O)C(=O)O    145 to 149 °C

Consider the additional compound presented here.
IN: Value lookup for melting point; key = C=CCn1cc(CCN2CCN(c3cccc4c3OCCO4)CC2)c2ccccc21.O=C(O)C(=O)O
OUT: 187 to 190 °C

###

- Tested on: cloned 5-HT1A receptors (Homo sapiens, UniProt P08908)
- Sequence (P08908 whole entry): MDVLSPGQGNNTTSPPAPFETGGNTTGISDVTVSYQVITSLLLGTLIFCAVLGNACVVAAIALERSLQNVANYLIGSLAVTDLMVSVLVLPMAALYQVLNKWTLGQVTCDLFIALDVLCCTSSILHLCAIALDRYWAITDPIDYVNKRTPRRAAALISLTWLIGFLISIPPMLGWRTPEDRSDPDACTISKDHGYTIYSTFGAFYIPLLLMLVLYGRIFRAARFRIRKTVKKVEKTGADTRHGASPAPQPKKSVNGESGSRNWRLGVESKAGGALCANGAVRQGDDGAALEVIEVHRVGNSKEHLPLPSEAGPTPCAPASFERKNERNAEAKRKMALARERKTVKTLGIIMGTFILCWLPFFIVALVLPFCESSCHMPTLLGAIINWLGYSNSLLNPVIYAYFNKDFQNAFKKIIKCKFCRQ
- Experimental protocol: Antagonism of 5-HT induced inhibition of forskolin induced cAMP accumulation
- Experimental context: cloned 5-HT1A receptors in transfected HeLa cells (HA7)
- Protocol: The assay was performed as a modification of the method described by Pauwels, P. J et al, Biochem. Pharmacol. 1993, 45, 375.
Counter-ions that a name gives are not always drawn.
Measurement type: pIC50
Notebook: values listed as pIC50 are -log10 of the concentration (mol/L).

Field: example entries. Status: answers known.
1) Clc1ccc2c(CCN3CCN(c4cccc5c4OCC5)CC3)c[nH]c2c1.O=C(O)C(=O)O [Compound 1o, oxalate]    5.49
2) Clc1ccc2[nH]cc(CCN3CCN(c4cccc5c4OCCO5)CC3)c2c1 [Compound 1a, Oxalate]    5.54
3) Clc1ccc2c(CCN3CC=C(c4cccc5c4OCCO5)CC3)c[nH]c2c1.O=C(O)C(=O)O [Compound 1v, oxalate]    5.48
4) CC1(C)Cc2cccc(C3=CCN(CCc4c[nH]c5cc(Cl)ccc45)CC3)c2O1    5.74
5) CC(=O)N1CC(CCN2CCN(c3cccc4c3OCCO4)CC2)c2ccccc21 (stereo not shown)    6.60
6) CC1(C)COc2c(N3CCN(CCc4c[nH]c5cc(Cl)ccc45)CC3)cc(Cl)cc21    5.59

IN: Which measured pIC50 value corresponds to Clc1ccc2[nH]cc(CCN3CCN(c4cccc5c4OCC5)CC3)c2c1.O=C(O)C(=O)O [Compound 1n, oxalate] ?
OUT: 5.72
